List of Percent Siglec-7 Surface Expression, NK cells values.
Target: human Siglec-7 expressed on human cells (primary monocytes, dendritic cells, macrophages, NK cells, … (human, UniProt Q9Y286 19-467))
Sequence (Q9Y286 19-467): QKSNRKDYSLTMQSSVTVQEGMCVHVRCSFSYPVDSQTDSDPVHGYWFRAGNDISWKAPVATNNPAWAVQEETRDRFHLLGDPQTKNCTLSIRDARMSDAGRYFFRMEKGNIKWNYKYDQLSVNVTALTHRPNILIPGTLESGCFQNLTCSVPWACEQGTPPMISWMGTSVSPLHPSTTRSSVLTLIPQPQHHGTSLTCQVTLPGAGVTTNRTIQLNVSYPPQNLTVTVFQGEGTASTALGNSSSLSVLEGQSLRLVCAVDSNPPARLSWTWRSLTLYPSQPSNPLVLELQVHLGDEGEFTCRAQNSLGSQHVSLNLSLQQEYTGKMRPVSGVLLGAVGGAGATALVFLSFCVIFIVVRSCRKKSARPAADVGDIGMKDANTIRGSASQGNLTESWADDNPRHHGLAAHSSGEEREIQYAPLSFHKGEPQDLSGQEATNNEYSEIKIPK
Assay: cell-based or functional assay
Give just the number in %; leave the unit off.

>  <binder>
anti-Siglec-7 antibody 7A3 (antibody, V domains shown, Variable domains assembled from FR and CDR entries; VL FR1 and VH FR1 hold Z and VH FR1 looks shortened at its N-terminus) VH: LVZSGGALVKPGGSLKLSCAASGFTFSNYAMSWVRQTPEKRLEWVASISSGGSYNYYPDSVKGRFTISRDNARNTLYLQMSSLRSKDTAMYYCASQSYGSSYWYFDVWGAGTTVTVSS VL: DIQMTQZPATLSVTPGDRVSLSCRASQSISEYLHWYHQKSHESPRLLIKFASQSICGIPSRFSGSGSGSDFTLTINSVEPEDVGVYYCQNGHNFPYTFGGGTKLEIK

>  <unit_name>
%

>  <reported_value>
77.1

$$$$
>  <binder>
anti-Siglec-7 antibody 2G4 (antibody, V domains shown, Variable domains assembled from FR and CDR entries) VH: QVQLQQSGSELRSPGSSVKLSCKDFDSEVFPITYMNWVRQKPGHGFEWIGDILPSIGRTMYGEKFEDKATLDADTVSNTAYLELNSLTSEDSAIYYCARSEGYLLAYWGQGTLVTVSA VL: DIQMTQSLSYLSVSLGGRVTITCKASDHINNWLAWYQQKPGNAPRLLISGATSLETGFPSRFSGSGSGKDYTLSITSLQTEDVATYYCHQYWNTPYTFGGGTRLEIK

>  <unit_name>
%

>  <reported_value>
126

$$$$

Req: Suppose we examine the binder anti-Siglec-7 antibody 7F12 (antibody, V domains shown, Variable domains assembled from FR and CDR entries) VH: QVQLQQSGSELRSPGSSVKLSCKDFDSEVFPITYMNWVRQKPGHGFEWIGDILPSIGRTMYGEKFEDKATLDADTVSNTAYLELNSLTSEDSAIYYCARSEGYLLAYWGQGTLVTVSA VL: DVLMTQTPLSLPVSLGDQASISCRSSQSLVHSTGNTYLHWYLQKPGQSPKLLIYKVSNRFSGVPDRFSGSGAGTDFTLKISRVEAEDLGVYFCSQNTHVPYTFGGGTKLEIK ; what Percent Siglec-7 Surface Expression, NK cells value has been reported?
Resp: 124
